- testTarget: Thermolysin (Bacillus thermoproteolyticus, UniProt P00800)
- Sequence (P00800 233-548): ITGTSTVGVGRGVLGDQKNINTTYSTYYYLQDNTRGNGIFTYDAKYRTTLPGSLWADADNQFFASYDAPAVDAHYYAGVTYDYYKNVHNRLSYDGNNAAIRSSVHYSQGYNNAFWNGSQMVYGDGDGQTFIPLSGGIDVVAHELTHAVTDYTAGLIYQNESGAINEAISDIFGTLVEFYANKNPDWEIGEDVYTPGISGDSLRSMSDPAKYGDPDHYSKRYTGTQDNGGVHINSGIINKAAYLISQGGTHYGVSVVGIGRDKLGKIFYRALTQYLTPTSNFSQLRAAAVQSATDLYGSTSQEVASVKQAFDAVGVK
recordedMetric: Ki (nM)
# number only, unit nM dropped from output

May I ask what Ki has been recorded for CN(C)S(=O)(=O)N(CC(=O)NO)Cc1ccccc1 ? 1200
